- experiment notes: Oral bioavailability in NCR nude mouse at 50 mg/kg measured upto 8 hrs by LC-MS/MS analysis
- Format: ADME, organism-based
- condition label: in vivo
reported endpoint: bioavailability

INSERT INTO assay_data (query_smiles, observed_measurement) VALUES
  ('C[C@H](Nc1ccc2c(c1)OCCn1cc(N3C(=O)OC[C@H]3C(F)F)nc1-2)C(N)=O', '59%');

----------
- experiment notes: Oral bioavailability in NCR nude mouse at 5 mg/kg measured upto 8 hrs by LC-MS/MS analysis
- Format: ADME, organism-based
- condition label: in vivo
reported endpoint: bioavailability (%)

INSERT INTO results (molecule, reported_endpoint, observed_measurement) VALUES
  ('C[C@H](Nc1ccc2c(c1)OCCn1cc(N3C(=O)OC[C@H]3C(F)F)nc1-2)C(N)=O [INAVOLISIB]', 'bioavailability', 45);

----------
Items are presented alongside their recorded Ki.
- study system: Phosphatidylinositol 4,5-bisphosphate 3-kinase catalytic subunit alpha isoform (Homo sapiens, UniProt P42336)
- Sequence (P42336 whole entry, canonical isoform): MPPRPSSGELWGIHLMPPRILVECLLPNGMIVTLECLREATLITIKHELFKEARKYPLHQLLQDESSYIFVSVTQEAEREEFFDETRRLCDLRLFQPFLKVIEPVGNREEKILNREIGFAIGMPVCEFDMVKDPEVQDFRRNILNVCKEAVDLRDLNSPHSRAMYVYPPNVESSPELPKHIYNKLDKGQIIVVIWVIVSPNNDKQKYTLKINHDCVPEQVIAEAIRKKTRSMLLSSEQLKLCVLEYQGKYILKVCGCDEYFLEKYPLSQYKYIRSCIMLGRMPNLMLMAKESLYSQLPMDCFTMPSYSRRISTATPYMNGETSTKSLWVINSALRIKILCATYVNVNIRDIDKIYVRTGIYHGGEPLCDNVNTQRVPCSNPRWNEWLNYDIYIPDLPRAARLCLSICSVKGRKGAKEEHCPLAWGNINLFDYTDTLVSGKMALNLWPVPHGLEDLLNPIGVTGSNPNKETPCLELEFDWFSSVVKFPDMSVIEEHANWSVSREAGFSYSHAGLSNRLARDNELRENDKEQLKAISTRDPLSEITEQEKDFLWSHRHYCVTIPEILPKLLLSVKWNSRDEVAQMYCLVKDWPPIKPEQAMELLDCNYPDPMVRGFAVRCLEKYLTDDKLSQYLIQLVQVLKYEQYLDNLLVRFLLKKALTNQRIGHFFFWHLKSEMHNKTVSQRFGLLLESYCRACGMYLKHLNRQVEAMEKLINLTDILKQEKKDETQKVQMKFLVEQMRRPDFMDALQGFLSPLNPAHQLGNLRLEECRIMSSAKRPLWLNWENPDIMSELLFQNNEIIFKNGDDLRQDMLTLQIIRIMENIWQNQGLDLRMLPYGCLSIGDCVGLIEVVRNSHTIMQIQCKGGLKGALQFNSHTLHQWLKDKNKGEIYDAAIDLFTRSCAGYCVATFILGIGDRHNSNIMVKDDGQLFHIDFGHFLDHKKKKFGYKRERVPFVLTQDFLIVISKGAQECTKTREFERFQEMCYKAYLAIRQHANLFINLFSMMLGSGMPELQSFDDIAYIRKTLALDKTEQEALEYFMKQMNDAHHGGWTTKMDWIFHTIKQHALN
- experiment notes: Inhibition of PI3Kalpha (unknown origin) using PIP2:3PS as substrate in presence of ATP measured after 120 mins by ADP-Glo assay
reported endpoint: Ki

INSERT INTO measurements (query_smiles, observed_measurement) VALUES
  ('NC(=O)[C@@H]1CCCN1c1ccc2c(c1)OCCn1cc(N3C(=O)OC[C@H]3C(F)(F)F)nc1-2', '0.15 nM'),
  ('CO[C@H]1CCN(c2cn3c(n2)-c2ccc(N4CCC[C@H]4C(N)=O)cc2OCC3)C1=O', '3.15 nM'),
  ('NC(=O)[C@@H](Nc1ccc2c(c1)OCCn1cc(N3C(=O)OC[C@H]3C(F)(F)F)nc1-2)C1CCC1', '0.323 nM'),
  ('NC(=O)[C@@H](Nc1ccc2c(c1)OCCn1cc(N3C(=O)OC[C@H]3C(F)(F)F)nc1-2)C1CC1', '0.1 nM');

----------
- study system: NaV1.5 (Homo sapiens)
- Sequence (Q14524 whole entry): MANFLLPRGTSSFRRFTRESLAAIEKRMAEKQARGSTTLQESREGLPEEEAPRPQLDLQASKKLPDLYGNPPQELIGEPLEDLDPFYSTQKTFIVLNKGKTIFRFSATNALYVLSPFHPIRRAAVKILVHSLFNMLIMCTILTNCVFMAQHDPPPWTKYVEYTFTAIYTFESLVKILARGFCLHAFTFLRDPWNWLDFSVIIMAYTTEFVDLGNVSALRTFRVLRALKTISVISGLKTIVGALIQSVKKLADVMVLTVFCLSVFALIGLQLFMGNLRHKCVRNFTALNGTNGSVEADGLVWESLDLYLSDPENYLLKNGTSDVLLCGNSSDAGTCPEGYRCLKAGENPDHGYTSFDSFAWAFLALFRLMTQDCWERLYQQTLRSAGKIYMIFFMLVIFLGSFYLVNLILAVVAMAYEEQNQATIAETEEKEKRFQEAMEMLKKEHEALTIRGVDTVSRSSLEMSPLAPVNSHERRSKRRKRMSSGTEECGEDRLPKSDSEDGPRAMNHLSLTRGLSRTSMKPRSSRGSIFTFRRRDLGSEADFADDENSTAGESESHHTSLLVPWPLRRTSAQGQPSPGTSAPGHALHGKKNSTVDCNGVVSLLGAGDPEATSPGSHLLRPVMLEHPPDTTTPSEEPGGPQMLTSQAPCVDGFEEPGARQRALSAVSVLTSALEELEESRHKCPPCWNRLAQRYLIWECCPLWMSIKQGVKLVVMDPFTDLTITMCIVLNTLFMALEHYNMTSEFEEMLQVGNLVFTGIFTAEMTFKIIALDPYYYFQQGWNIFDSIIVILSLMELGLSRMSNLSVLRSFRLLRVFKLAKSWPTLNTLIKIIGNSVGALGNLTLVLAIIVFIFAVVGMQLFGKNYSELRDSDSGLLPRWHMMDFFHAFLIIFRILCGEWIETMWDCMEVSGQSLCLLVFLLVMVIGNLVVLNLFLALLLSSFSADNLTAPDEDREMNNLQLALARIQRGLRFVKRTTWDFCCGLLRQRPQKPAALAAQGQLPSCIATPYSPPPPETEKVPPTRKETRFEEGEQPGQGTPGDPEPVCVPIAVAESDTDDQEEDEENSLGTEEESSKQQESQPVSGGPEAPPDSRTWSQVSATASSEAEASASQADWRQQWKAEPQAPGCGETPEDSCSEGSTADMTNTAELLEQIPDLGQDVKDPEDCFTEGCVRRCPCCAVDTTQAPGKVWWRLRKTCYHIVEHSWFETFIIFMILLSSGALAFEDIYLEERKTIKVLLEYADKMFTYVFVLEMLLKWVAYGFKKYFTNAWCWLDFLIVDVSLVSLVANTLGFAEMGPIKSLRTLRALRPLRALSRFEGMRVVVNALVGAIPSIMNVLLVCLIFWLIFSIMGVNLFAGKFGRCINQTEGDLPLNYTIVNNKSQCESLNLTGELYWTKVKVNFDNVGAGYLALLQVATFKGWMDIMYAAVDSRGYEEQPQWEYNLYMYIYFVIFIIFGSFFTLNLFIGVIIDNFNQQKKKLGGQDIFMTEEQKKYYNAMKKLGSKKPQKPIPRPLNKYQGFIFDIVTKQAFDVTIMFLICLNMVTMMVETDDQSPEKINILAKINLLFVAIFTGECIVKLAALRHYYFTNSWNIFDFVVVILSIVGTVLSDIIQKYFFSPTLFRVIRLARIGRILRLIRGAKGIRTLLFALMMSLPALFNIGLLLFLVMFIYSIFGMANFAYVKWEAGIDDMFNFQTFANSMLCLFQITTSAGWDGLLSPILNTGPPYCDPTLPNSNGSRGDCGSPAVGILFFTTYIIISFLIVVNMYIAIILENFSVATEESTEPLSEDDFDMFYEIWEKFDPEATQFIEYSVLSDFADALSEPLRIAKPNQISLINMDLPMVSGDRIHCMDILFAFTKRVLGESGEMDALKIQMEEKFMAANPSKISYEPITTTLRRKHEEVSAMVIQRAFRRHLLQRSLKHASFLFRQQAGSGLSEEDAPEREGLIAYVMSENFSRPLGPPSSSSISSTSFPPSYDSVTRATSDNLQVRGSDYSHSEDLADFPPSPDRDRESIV
- experiment notes: Inhibition of human NaV1.5 at 10 uM relative to control
reported endpoint: inhibition at 10 µM

INSERT INTO results (query_smiles, reported_endpoint, observed_measurement) VALUES
  ('C[C@H](Nc1ccc2c(c1)OCCn1cc(N3C(=O)OC[C@H]3C(F)F)nc1-2)C(N)=O', 'inhibition at 10 µM', '< 20%');

----------
- study system: Phosphatidylinositol 4,5-bisphosphate 3-kinase catalytic subunit alpha isoform (Homo sapiens, UniProt P42336)
- experiment notes: Inhibition of PI3Kalpha (unknown origin) using PIP2:3PS as substrate in presence of ATP measured after 120 mins by ADP-Glo assay
reported endpoint: log10(Ki) (log10 of the value in pM)

INSERT INTO measurements (query_smiles, reported_endpoint, observed_measurement) VALUES
  ('NC(=O)[C@@H]1CCCN1c1ccc2c(c1)OCCn1cc(N3CCOC3=O)nc1-2', 'log10(Ki)', 3.76),
  ('COC[C@@H]1COC(=O)N1c1cn2c(n1)-c1ccc(N3CCC[C@H]3C(N)=O)cc1OCC2', 'log10(Ki)', 3.51),
  ('C[C@@H]1CN(c2cn3c(n2)-c2ccc(N4CCC[C@H]4C(N)=O)cc2OCC3)C(=O)O1', 'log10(Ki)', 4.06),
  ('CC1(C)C(=O)NC(=O)N1c1cn2c(n1)-c1ccc(N3CCC[C@H]3C(N)=O)cc1OCC2', 'log10(Ki)', 2.83),
  ('NC(=O)[C@@H]1CCCN1c1ccc2c(c1)OCCn1cc(N3CCCOCC3=O)nc1-2', 'log10(Ki)', 2.51),
  ('CC(C)[C@@H]1COC(=O)N1c1cn2c(n1)-c1ccc(N3CCC[C@H]3C(N)=O)cc1OCC2', 'log10(Ki)', 1.62),
  ('NC(=O)[C@@H]1CCCN1c1ccc2c(c1)OCCn1cc(N3CCOCC3=O)nc1-2', 'log10(Ki)', 3.40),
  ('CC(C)[C@H](Nc1ccc2c(c1)OCCn1cc(N3C(=O)OC[C@H]3C(F)(F)F)nc1-2)C(N)=O', 'log10(Ki)', 2.84),
  ('NC(=O)[C@@H]1CCCN1c1ccc2c(c1)OCCn1cc(N3C(=O)CC[C@H]3C(F)(F)F)nc1-2', 'log10(Ki)', 2.90),
  ('CC(C)n1nc(N)nc1-c1cn2c(n1)-c1ccc(N3CCC[C@H]3C(N)=O)cc1OCC2', 'log10(Ki)', 1.41),
  ('CO[C@@H]1CCN(c2ccc3c(c2)OCCn2cc(N4C(=O)OC[C@H]4C(F)(F)F)nc2-3)[C@@H]1C(N)=O', 'log10(Ki)', 1.99),
  ('NC(=O)[C@@H]1[C@H](F)CCN1c1ccc2c(c1)OCCn1cc(N3C(=O)OC[C@H]3C(F)(F)F)nc1-2', 'log10(Ki)', 2.46),
  ('C[C@H](Nc1ccc2c(c1)OCCn1cc(N3C(=O)OC[C@H]3C(F)(F)F)nc1-2)C(N)=O', 'log10(Ki)', 1.98),
  ('NC(=O)[C@@H]1CCCN1c1ccc2c(c1)OCCn1cc(N3CCn4nccc4C3=O)nc1-2', 'log10(Ki)', 2.64),
  ('C[C@H](Oc1ccc2c(c1)OCCn1cc(-c3nc(CO)nn3CC(F)(F)F)nc1-2)C(N)=O', 'log10(Ki)', 1.79),
  ('CC[C@H](Nc1ccc2c(c1)OCCn1cc(N3C(=O)OC[C@H]3C(F)(F)F)nc1-2)C(N)=O', 'log10(Ki)', 2.20),
  ('NC(=O)[C@@H]1CCCN1c1ccc2c(c1)OCCn1cc(N3CCCOC3=O)nc1-2', 'log10(Ki)', 4.48),
  ('NC(=O)[C@@H]1COCCN1c1ccc2c(c1)OCCn1cc(N3C(=O)OC[C@H]3C(F)(F)F)nc1-2', 'log10(Ki)', 3.47);
